test system: neoplastic cells collected from spleen and abdominal tumor biopsy specimens; assay: MiCK assay, patient specific cancer cell testing (Example 10); format: cell-based, human; conditions: person, tumor of unknown primary; maximum apoptotic response over the concentrations tested
Listed here are compounds together with their documented Max Resp. (KU).
measured-endpoint: Max Resp. (KU)

- compound: "CCc1c2c(nc3ccc(OC(=O)N4CCC(N5CCCCC5)CC4)cc13)-c1cc3c(c(=O)n1C2)COC(=O)[C@]3(O)CC [Irinotecan]"
  measured-endpoint: "Max Resp. (KU)"
  reading-unit: "KU"
  result-value: 2.6
- compound: "Cn1nnc2c(C(N)=O)ncn2c1=O [Temozolomide]"
  measured-endpoint: "Max Resp. (KU)"
  reading-unit: "KU"
  result-value: 1.5
- compound: "COc1cccc2c1C(=O)c1c(O)c3c(c(O)c1C2=O)C[C@@](O)(C(=O)CO)C[C@@H]3O[C@H]1C[C@H](N)[C@@H](O)[C@H](C)O1 [Epi, Epirubicin]"
  measured-endpoint: "Max Resp. (KU)"
  reading-unit: "KU"
  result-value: 3.8
